Parameter viability, T/C: see the listing below.
System: 885724-159-R-J1-PDC KRAS PDC multicell spheroid viability
Test: Anticancer human tumor 885724-159-R-J1-PDC patient-derived pancreatic adenocarcinoma cell line growth inhibition [KRAS2]
Details: second compound 3.16 µM; first compound 1 µM; active compounds read low
Numeric only. Scale: %

{"MOLECULE": "COC(=O)c1ccc2c(C(=Nc3ccc(N(C)C(=O)CN4CCN(C)CC4)cc3)c3ccccc3)c(O)[nH]c2c1 + CC1OCC2(CCN(c3cnc(Sc4ccnc(N)c4Cl)c(N)n3)CC2)C1N", "UNIT_INFO": "%", "viability, T/C": 66}

Recorded viability, T/C for CC(C)NCC(C(=O)N1CCN(c2ncnc3c2C(C)CC3O)CC1)c1ccc(Cl)cc1 (stereo not drawn) + C=CC(=O)N1CCN(c2nc(=O)n(-c3c(C)ccnc3C(C)C)c3nc(-c4c(O)cccc4F)c(F)cc23)C(C)C1 on 885724-159-R-J1-PDC KRAS PDC multicell spheroid viability was 68.3

Query CCN1CCN(Cc2ccc(Nc3ncc(F)c(-c4cc(F)c5nc(C)n(C(C)C)c5c4)n3)nc2)CC1 + CC1OCC2(CCN(c3cnc(Sc4ccnc(N)c4Cl)c(N)n3)CC2)C1N on 885724-159-R-J1-PDC KRAS PDC multicell spheroid viability; viability, T/C returned: 71

885724-159-R-J1-PDC KRAS PDC multicell spheroid viability viability, T/C of CC(C)NCC(C(=O)N1CCN(c2ncnc3c2C(C)CC3O)CC1)c1ccc(Cl)cc1 (stereo not drawn) + C=CC(=O)N1CCN(c2nc(OCC3CCCN3C)nc3c2CCN(c2cccc4cccc(C)c24)C3)CC1CC#N is 26.8

* * *

Test system: 885724-159-R-J1-PDC KRAS PDC multicell spheroid viability
Assay: Anticancer human tumor 885724-159-R-J1-PDC cell line growth inhibition [KRAS2];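 also: spheroids exposed to agents for 7 days before readout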
Settings: second compound 1 µM; first compound 10 µM; active compounds read low
# viability, T/C values compiled below
Express your answer in %, writing the number without its unit.

# example entries with known answers
{"MOLECULE": "COc1cc2nccc(Oc3ccc(NC(=O)C4(C(=O)Nc5ccc(F)cc5)CC4)cc3)c2cc1OC + CNCc1ccccc1-c1csc(C(C)Nc2nc(C)nc3cc(OC)c(OC)cc23)c1", "TARGET_OR_SYSTEM": "885724-159-R-J1-PDC KRAS PDC multicell spheroid viability", "viability, T/C (%)": 12.6}
{"MOLECULE": "O=C(c1cc(Cc2n[nH]c(=O)c3ccccc23)ccc1F)N1CCN(C(=O)C2CC2)CC1 + CC1OCC2(CCN(c3cnc(Sc4ccnc(N)c4Cl)c(N)n3)CC2)C1N", "TARGET_OR_SYSTEM": "885724-159-R-J1-PDC KRAS PDC multicell spheroid viability", "viability, T/C (%)": 104}

What the record says about CC1(C)CCC(CN2CCN(c3ccc(C(=O)NS(=O)(=O)c4ccc(NCC5CCOCC5)c([N+](=O)[O-])c4)c(Oc4cnc5[nH]ccc5c4)c3)CC2)=C(c2ccc(Cl)cc2)C1 + CNCc1ccccc1-c1csc(C(C)Nc2nc(C)nc3cc(OC)c(OC)cc23)c1 : viability, T/C is 12.1

Recorded viability, T/C (molecule CCNC(=O)CC1N=C(c2ccc(Cl)cc2)c2cc(OC)ccc2-n2c(C)nnc21 (stereo not given) + C=CC(=O)N1CCN(c2nc(OCC3CCCN3C)nc3c2CCN(c2cccc4cccc(C)c24)C3)CC1CC#N ): 39.5

// sample CCNC(=O)CC1N=C(c2ccc(Cl)cc2)c2cc(OC)ccc2-n2c(C)nnc21 (stereo not given) + CNCc1ccccc1-c1csc(C(C)Nc2nc(C)nc3cc(OC)c(OC)cc23)c1 , its viability, T/C was 49.7
